# System: DIV17
# assay-overview: qHTS profiling for inhibitors of Plasmodium falciparum proliferation (AID 504749); note: nearly all actives have a fitted effect of over 60% in size
# assay-conditions: P. falciparum in erythrocytes, SYBR Green DNA, 72 h; series mostly up to 28.7 µM
Results filed as inconclusive are left out. Activity calls are given as the source filed them. Calls come from the whole dose curve; as a rule, active = well fitted inhibition curve with a large enough effect; inconclusive = small, poorly fitted or top-dose-only effect; inactive = flat fitted curve, though single readings scatter.

- smiles-text: "N[C@@H](Cc1cnc[nH]1)C(=O)O"
  outcome: "inactive"
- smiles-text: "CCCCC1=NC2(CCCC2)C(=O)N1Cc1ccc(-c2ccccc2-c2nn[nH]n2)cc1"
  outcome: "inactive"
- smiles-text: "COC(=O)[C@@H]1CC2=CC(=O)CC[C@]2(C)[C@@]23O[C@@H]2C[C@@]2(C)[C@@H](CC[C@@]24CCC(=O)O4)[C@H]13"
  outcome: "inactive"

----------
# assay-overview: Stat Signaling Pathway (AID 446);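 note: ME-180 cervical cancer cells given 40 pM IL-6 alongside compound; SIE-controlled beta-lactamase reporter measured as 460/530 nm FRET emission ratio; % is set by controls: 0 for no effect and ±100 for the full control effect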
# assay-conditions: ME-180 (cervical carcinoma) SIE beta-lactamase reporter, IL-6 stimulated, 5 h; at 17.2 µM (top of the series)
Results filed as inconclusive are left out.
property-label: activity, negative = inhibition (%)
Answers are plain numbers, in %.

- compound: "CC(=O)O[C@H]1C[C@@H]2CC[C@@H]3[C@H](CC[C@@]4(C)[C@H]3C[C@H]([N+]3(C)CCCCC3)[C@@H]4OC(C)=O)[C@@]2(C)C[C@@H]1[N+]1(C)CCCCC1"
  activity, negative = inhibition, %: 10.1
- compound: "C=C(CC)C(=O)c1ccc(OCC(=O)O)c(Cl)c1Cl"
  activity, negative = inhibition, %: -17.9
- compound: "CCCCCCCCCCCCCCCC[N+](C)(C)CCN(Cc1ccc(OC)cc1)c1ncccn1"
  activity, negative = inhibition, %: 11.5

Dear colleague, could you please provide activity, negative = inhibition for the compounds listed below?
1. O=C(CCCN1CCC(O)(c2ccc(Br)cc2)CC1)c1ccc(F)cc1
2. CCn1cc(C(=O)O)c(=O)c2cnc(N3CCCC3)nc21
3. O=C(COc1ccc(Cl)cc1)N1CCN(Cc2ccc3c(c2)OCO3)CC1
4. CCCCC(=O)O[C@]1(C(=O)CO)CC[C@H]2[C@@H]3CCC4=CC(=O)CC[C@]4(C)[C@H]3[C@@H](O)C[C@@]21C
5. CC(=O)O[C@]1(C(C)=O)CC[C@H]2[C@@H]3C[C@H](C)C4=CC(=O)CC[C@]4(C)[C@H]3CC[C@@]21C
6. CCN(CCCCOC(=O)c1ccc(OC)c(OC)c1)C(C)Cc1ccc(OC)cc1 (stereo not drawn)

Output:
1: 1.5; 2: 2.28; 3: 1.26; 4: -12.8; 5: 11.1; 6: 1.95

Dear colleague, could you please provide activity, negative = inhibition for the compounds listed below?
1. C[C@H](CCC(=O)O)[C@H]1CC[C@H]2[C@@H]3C(=O)C[C@@H]4CC(=O)CC[C@]4(C)[C@H]3CC(=O)[C@]12C
2. O=C1OC(c2ccc(O)cc2)(c2ccc(O)cc2)c2ccccc21
3. NC(=NCCCCCCN=C(N)/N=C(\N)Nc1ccc(Cl)cc1)/N=C(\N)Nc1ccc(Cl)cc1
4. NCCc1ccn[nH]1
5. CN1CCN(C(c2ccccc2)c2ccccc2)CC1
6. Oc1c(Cl)cc(Cl)cc1Sc1cc(Cl)cc(Cl)c1O

Output:
[1.08, -16.8, -5.46, 4.55, 3.06, -99.1]

----------
# Test system: CP238
# assay-overview: qHTS profiling for inhibitors of Plasmodium falciparum proliferation (AID 504749); note: nearly all actives have a fitted effect of over 60% in size
# assay-conditions: P. falciparum in erythrocytes, SYBR Green DNA, 72 h; series mostly up to 28.7 µM
Records with an inconclusive call do not appear. Calls of active or inactive are those of the source. Calls come from the whole dose curve; as a rule, active = well fitted inhibition curve with a large enough effect; inconclusive = small, poorly fitted or top-dose-only effect; inactive = flat fitted curve, though single readings scatter.
Give one outcome, nothing more. List: yes = active, no = inactive

Use these answered entries as a reference point.
- compound: "CCC(C(=O)OCCN(CC)CC)c1ccccc1 (stereo not drawn)"
  assayed-system: "CP238"
  classification: "no"
- compound: "NCCCC[C@H](N[C@@H](CCc1ccccc1)C(=O)O)C(=O)N1CCC[C@H]1C(=O)O"
  assayed-system: "CP238"
  classification: "no"

We now examine a further compound.
Input: Just curious, what result did "Oc1c(I)cc(Cl)c2cccnc12" get here?
Output: yes

----------
# assay-overview: qHTS of pediatric cancer cell lines to identify multiple opportunities for drug repurposing: Primary screen for OHS-50 cells (AID 1347103); note: nearly all actives have a fitted effect of over 40% in size
# assay-conditions: OHS-50 osteosarcoma viability, CellTiter-Glo luminescence, 48 h; series mostly up to 57.3 µM
Records with an inconclusive call do not appear. Active and inactive are the calls of the source. Calls come from the whole dose curve; as a rule, active = well fitted cell-killing curve with a large enough effect; inconclusive = small, poorly fitted or top-dose-only effect; inactive = no such curve, though single readings can be large or run the other way. Numbered stars: 1 amine (or outer) side, 2 acyl side, 3 side chain; on linkers, the order of the positions; unused ones are H or OH. Bridge positions count the residues as written; N and C are the ends. Square brackets hold non-standard residues; d marks the D form. Peptide text beside a SMILES is read from it. I, II: the chains in the order shown. Actinocin(9to1) = Cc1c2oc3c(C)ccc(C(=O)[*:1])c3nc-2c(C(=O)[*:2])c(N)c1=O; NMeV = CN[C@H](C(=O)O)C(C)C; Sar = CNCC(=O)O
Give one outcome, nothing more. List: active, inactive

Use these answered entries as a reference point.
- molecule: "CCC(C(=O)OCCN(CC)CC)c1ccccc1 (configuration not stated)"
  classification: "inactive"
- molecule: "Cc1ccc(Nc2c(F)cccc2Cl)c(CC(=O)O)c1"
  classification: "inactive"
- molecule: "Cc1c2oc3c(C)ccc(C(=O)N[C@@H]4C(=O)N[C@H](C(C)C)C(=O)N5CCC[C@H]5C(=O)N(C)CC(=O)N(C)[C@@H](C(C)C)C(=O)O[C@@H]4C)c3nc-2c(C(=O)N[C@@H]2C(=O)N[C@H](C(C)C)C(=O)N3CCC[C@H]3C(=O)N(C)CC(=O)N(C)[C@@H](C(C)C)C(=O)O[C@@H]2C)c(N)c1=O (I: T[dV]P[Sar][NMeV] / II: T[dV]P[Sar][NMeV]; ester I:1-I:C, II:1-II:C; linker I:N-II:N via Actinocin(9to1))"
  classification: "active"
- molecule: "O=c1c(-c2ccccc2)c1-c1ccccc1"
  classification: "active"
- molecule: "CCOc1ccc2nc3cc(N)ccc3c(N)c2c1"
  classification: "inactive"

Input: Just curious, what result did "CCN(CC)CCNC(=O)COc1ccc(Cl)cc1" get here?
Output: inactive

Input: Would you kindly repeat that for "CC(=O)N(O)CCCCCNC(=O)CCC(=O)N(O)CCCCCNC(=O)CCC(=O)N(O)CCCCCN" ?
Output: active

----------
# assay-overview: qHTS of pediatric cancer cell lines to identify multiple opportunities for drug repurposing: Confirmatory screen for BT-37 cells (AID 1347117);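 note: viability measured after 48 h of compound exposure; plate controls were DMSO for no effect and bortezomib for full effect; nearly all actives have a fitted effect of over 55% in size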
# assay-conditions: BT-37 pediatric cancer cells, viability; series mostly up to 45.9 µM
Results filed as inconclusive are left out. Activity calls are given as the source filed them. The call rests on the fitted dose curve; in most records, active means well fitted cell-killing curve with a large enough effect; inconclusive means small, poorly fitted or top-dose-only effect; inactive means no such curve, though single readings can be large or run the other way.

- molecule: "CCC(C(=O)OCCN(CC)CC)c1ccccc1 (stereo not drawn)"
  outcome: "inactive"
- molecule: "CC1(C)O[C@@H]2C[C@H]3[C@@H]4CCC5=CC(=O)CC[C@]5(C)[C@@]4(F)[C@@H](O)C[C@]3(C)[C@]2(C(=O)CCl)O1"
  outcome: "inactive"
- molecule: "NC(CO)(CO)CO"
  outcome: "inactive"

----------
# Test system: Dd2
# assay-overview: qHTS profiling for inhibitors of Plasmodium falciparum proliferation (AID 504749); note: nearly all actives have a fitted effect of over 60% in size; note: potency is the fitted concentration of half-maximal effect
# assay-conditions: P. falciparum in erythrocytes, SYBR Green DNA, 72 h; series mostly up to 28.7 µM
Inconclusive results are not listed. Active and inactive are the calls of the source. The call rests on the fitted dose curve; in most records, active means well fitted inhibition curve with a large enough effect; inconclusive means small, poorly fitted or top-dose-only effect; inactive means flat fitted curve, though single readings scatter.
property-label: Potency

- molecule: "CC(C)N=C(N)/N=C(\\N)Nc1ccc(Cl)cc1"
  Potency: "3.55 µM (active)"
- molecule: "CCCCCCCCCCOCC(O)CN (stereo not drawn)"
  Potency: "12.6 µM (active)"

Lab note: next molecule to report on.
Input: // lookup Potency | system=Dd2 | key= "CC[N+](CC)(CCNC(=O)C(=O)NCC[N+](CC)(CC)Cc1ccccc1Cl)Cc1ccccc1Cl"
Output: 2.51 µM (active)

----------
# assay-overview: P-glycoprotein substrates identified in KB-8-5-11 adenocarcinoma cell line, qHTS therapeutic library screen (AID 1346987); note: nearly all actives have a fitted effect of over 65% in size
# assay-conditions: KB-8-5-11 (P-gp overexpressing) viability, CellTiter-Glo, 72 h; series mostly up to 44.5 µM
Inconclusive results are not listed. The source made the active and inactive calls. The call rests on the fitted dose curve; in most records, active means well fitted inhibition curve with a large enough effect; inconclusive means small, poorly fitted or top-dose-only effect; inactive means flat fitted curve, though single readings scatter.
Give one outcome, nothing more. List: class 1 (active), class 0 (inactive)

Use these answered entries as a reference point.
- molecule: "COc1ccc(C2C(=O)c3ccccc3C2=O)cc1"
  classification: "class 0"
- molecule: "N[C@@H](Cc1cnc[nH]1)C(=O)O"
  classification: "class 0"
- molecule: "COc1cccc2c1C(=O)c1c(O)c3c(c(O)c1C2=O)C[C@@](O)(C(=O)CO)C[C@@H]3O[C@H]1C[C@H](N)[C@H](O)[C@H](C)O1"
  classification: "class 0"
- molecule: "Nc1ccc(/C=C/c2ccc(N)cc2S(=O)(=O)O)c(S(=O)(=O)O)c1"
  classification: "class 0"
- molecule: "Oc1c(Cl)cc(Cl)cc1Sc1cc(Cl)cc(Cl)c1O"
  classification: "class 1"
- molecule: "CC(C)N=C(N)/N=C(\\N)Nc1ccc(Cl)cc1"
  classification: "class 0"
- molecule: "Cc1ccc(Nc2c(F)cccc2Cl)c(CC(=O)O)c1"
  classification: "class 0"
- molecule: "C/C=C/c1ccc(OC)cc1"
  classification: "class 0"

Input: Just curious, what result did "CCN(CC)C(=O)/C(C#N)=C/c1cc(O)c(O)c([N+](=O)[O-])c1" get here?
Output: class 0

Input: Would you kindly repeat that for COc1cc2c(cc1OC)C(=O)C(CC1CCN(Cc3ccccc3)CC1)C2 (configuration not stated) ?
Output: class 1

Input: Would you kindly repeat that for "CCCCCCC[N+](CC)(CC)CCCCc1ccc(Cl)cc1" ?
Output: class 0

Input: Would you kindly repeat that for CCOC(=O)OC(C)OC1=C(C(=O)Nc2ccccn2)N(C)S(=O)(=O)c2ccccc21 (configuration not stated) ?
Output: class 0

Input: Would you kindly repeat that for "O=C(O)CNC(=O)c1ccccc1" ?
Output: class 0
